EXPERIMENTAL TARGET: T1, thyroid stimulating hormone receptor (full length human TSHR) (human, UniProt P16473 22-764)
T1 construct: Full length TSHR coated onto plastic tubes (TSHR coated tubes, as in WO2004/050708A2); also called TSH receptor
EXPERIMENT SUMMARY: competitor ^125I-K1-70 IgG, TSHR coated tubes; 0.1 µg/mL in assay buffer
OUTCOME MEASURE: Inhibition of binding (%)
Numbers only, in %.

>>> readout_value("K1-70 IgG (antibody, V domains shown, Human IgG1 lambda purified from hetero-hybridoma supernatant) VH: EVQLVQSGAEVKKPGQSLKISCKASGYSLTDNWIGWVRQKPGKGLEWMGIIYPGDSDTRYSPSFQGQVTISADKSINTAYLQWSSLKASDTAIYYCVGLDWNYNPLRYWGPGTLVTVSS VL: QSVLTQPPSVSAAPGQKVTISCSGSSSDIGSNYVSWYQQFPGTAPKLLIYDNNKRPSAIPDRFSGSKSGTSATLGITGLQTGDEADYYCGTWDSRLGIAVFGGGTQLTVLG")
87.1
>>> readout_value("K1-18 IgG (antibody, V domains shown, Human IgG1 kappa purified from hetero-hybridoma supernatant; it is not part of the secreted protein; also called human monoclonal TSHR autoantibody K1-18 (stimulating)) VH: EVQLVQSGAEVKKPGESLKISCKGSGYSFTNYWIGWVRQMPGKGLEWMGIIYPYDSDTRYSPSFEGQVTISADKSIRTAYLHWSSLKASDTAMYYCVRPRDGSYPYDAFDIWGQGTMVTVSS VL: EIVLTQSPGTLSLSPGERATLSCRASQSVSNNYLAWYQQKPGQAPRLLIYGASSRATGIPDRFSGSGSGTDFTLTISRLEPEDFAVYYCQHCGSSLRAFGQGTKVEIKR")
77.9
>>> readout_value("K1-18 Fab (Fab, V domains shown) VH: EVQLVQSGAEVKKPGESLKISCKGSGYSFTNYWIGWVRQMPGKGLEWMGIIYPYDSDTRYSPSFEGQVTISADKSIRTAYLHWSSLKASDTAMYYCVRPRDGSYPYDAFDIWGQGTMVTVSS VL: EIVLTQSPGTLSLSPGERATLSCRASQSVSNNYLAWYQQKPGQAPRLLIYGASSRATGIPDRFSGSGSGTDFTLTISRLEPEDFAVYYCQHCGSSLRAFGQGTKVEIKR")
62.8

Moving on to another binder below.
## Task Entry under review: K1-70 Fab (Fab, V domains shown) VH: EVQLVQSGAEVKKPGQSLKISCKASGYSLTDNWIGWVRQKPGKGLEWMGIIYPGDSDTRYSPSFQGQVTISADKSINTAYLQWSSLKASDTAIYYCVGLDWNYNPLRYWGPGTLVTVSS VL: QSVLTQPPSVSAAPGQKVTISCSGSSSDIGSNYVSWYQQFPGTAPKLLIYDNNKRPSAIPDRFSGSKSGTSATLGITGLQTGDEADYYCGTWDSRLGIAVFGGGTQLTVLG . Reported Inhibition of binding (%)?
## Result 87.5
